Where these numbers come from: PubChem BioAssay

assay: yeast growth modulation, basal conditions, primary screen, YJM789 clinical isolate, OD600, 24 h (AID 1089);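 note: growth of clinical yeast isolate S. cerevisiae YJM 789 seeded 1000 cells per well; test concentration not given here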; conditions: S. cerevisiae YJM789 growth, higher = more signal, called active from +8 up or from −8 down
Activity calls are given as the source filed them.
Can you tell me z-score for the items I'm about to list?

Sample CC(C)(C)OC(=O)CC[C@]1(C(=O)N2CCCCC2)N=C(c2ccc(OCCCO)cc2)O[C@H]1c1ccccc1 ; z-score observed: -4.57 (inactive)

Sample CC(=O)NCCCC[C@@H]1NC(=O)[C@H]2C[C@@H](C(=O)NCCCCCCN(C)C)[C@@H](c3ccc(O)cc3)N2C1=O ; z-score observed: -0.139 (inactive)

Sample COCCOC(=O)N1C(=O)[C@@]2(c3cc(C#CCC(C(=O)OC)C(=O)OC)ccc31)[C@H](c1ccccc1OCCO)N1[C@H](c3ccccc3)[C@H](c3ccccc3)OC(=O)[C@H]1[C@@H]2C(=O)N1CCCCCCC1 ; z-score observed: 1.22 (inactive)

Sample O=C1C2C=CC(C(O)c3ccccc3)N(n3cnnc3)C2C(=O)N1Cc1ccccc1 (centres undefined) ; z-score observed: -1.3 (inactive)

---

experiment: adipocyte viability effects, profiling panel, cell-based, 3T3-L1 adipocytes, calcein-AM fluorescence, 48 h, basal (AID 1163); details: 3T3-L1 adipocytes viability, higher = more signal; note: test concentration not given here
Can you tell me z-score for the items I'm about to list?
// no unit string in output, number only

Sample Cc1ccc(S[C@]2(C(=O)O)CC(=O)N(Cc3cc(C(F)(F)F)cc(C(F)(F)F)c3)[C@@H]2c2ccc(CO)cc2I)cc1 ; z-score observed: 0.429

Sample C=C(CCCC)C(=O)CC[C@@H](OC(=O)c1cccnc1)c1cccc(OCCO)c1 ; z-score observed: 0.977

Sample CCCC/C=C/[C@H]([C@@H](O)Cc1ccccc1)N(CC#Cc1ccccc1)Cc1ccccc1Br ; z-score observed: -0.0982

---

Can you tell me z-score for the items I'm about to list?
assay: basal MM1S mitochondrial membrane potential changes, profiling panel, cell-based, JC-1 fluorescence, 24 h, 100 nL compound (AID 1170); details: higher = more signal; note: test concentration not given here
// no unit string in output, number only

Sample C=CCN1C(=O)[C@@]2(O[C@@H](CCn3cc([C@H](O)c4ccccc4)nn3)[C@H]([Si](C)(C)c3ccc(OC)cc3)[C@H]2C)c2cc(N3CCOC3=O)ccc21 ; z-score observed: 0.753

Sample COC(=O)[C@@]1(Cc2ccccc2CN=[N+]=[N-])N=C(c2ccc(OCCCO)cc2)O[C@H]1c1ccccc1N=[N+]=[N-] ; z-score observed: -2.29

Sample C=CCC(OC(C)=O)[C@@H]1[C@@H](N(Cc2ccc(-c3ccccc3)cc2)C(=O)c2ccc(C)cc2)c2cc(OCCCO)ccc2N1C(=O)c1ccc(-c2ccccc2)cc1 (some centres undefined) ; z-score observed: 1.22

Sample CC(=O)NCCCC[C@@H]1NC(=O)[C@H]2C[C@@H](C(=O)NCCCCCCN(C)C)[C@@H](c3ccc(O)cc3)N2C1=O ; z-score observed: 0.116

---

test: compound binding in COS7 lysate, probe aLAP1, primary screen, cell lysate, small-molecule microarray (AID 1124); conditions: probe aLAP1, fluorescence, higher = more signal;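 note: lysate comes from COS7 cells expressing LAP1 and is applied at 0.3 µg/mL; score merges spot fluorescence near 667 nm with signal-to-noise over triplicate slides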
Property Label: composite z-score

Sample COCCOC(=O)N1C(=O)[C@@]2(c3cc(C#CCC(C(=O)OC)C(=O)OC)ccc31)[C@H](c1ccccc1OCCO)N1[C@H](c3ccccc3)[C@H](c3ccccc3)OC(=O)[C@H]1[C@@H]2C(=O)N1CCCCCCC1 ; composite z-score observed: 0.385

Sample CCCC[C@@H]1C[C@H]1[C@@H](NC(=O)c1ccccc1)c1ccccc1C(F)(F)F ; composite z-score observed: 0.13

Sample O=C1C[C@@](C(=O)NC2CC2)(c2ccc([N+](=O)[O-])cc2)[C@@H](c2ccc(CO)cc2I)N1CC12CC3CC(CC(C3)C1)C2 ; composite z-score observed: 2.12

Sample CCC(=O)[C@]12O[C@@]3([C@@H]4C(=O)OCC[C@@H]41)N(CC)C(C)=C(C(=O)OC)[C@@H](c1ccccc1)N3C2=O ; composite z-score observed: 0.448

Sample C[C@@H]1CC[C@H]2C(=O)N3CCC[C@H]3C(=O)N2[C@H]1c1ccc(Br)cc1 ; composite z-score observed: 0.123

Sample COc1ccc([C@H]2C[C@H]3C(Br)=C[C@]2(OC)C(=O)[C@]32CO2)cc1 ; composite z-score observed: 0.542

Sample CCCC=C(CCC)[C@@H](NC(=O)c1ccc(C(F)(F)F)cc1)c1ccccc1 ; composite z-score observed: -0.805

---

Can you tell me z-score for the items I'm about to list?
assay: E. coli DRC41 culture turbidity changes, primary screen, E. coli filamentation inducer project, strain DRC41, OD650, 48 h (AID 1152);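 note: E. coli MC1000 strain DRC41 lacking acrAB efflux pump and sulA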; settings: E. coli DRC41 (acrAB sulA), higher = more signal, called active from +8 up or from −8 down
// no unit string in output, number only

Sample O=C1C[C@@](C(=O)NC2CC2)(c2ccc([N+](=O)[O-])cc2)[C@@H](c2ccc(CO)cc2I)N1CC12CC3CC(CC(C3)C1)C2 ; z-score observed: -1.11

Sample O=C1O[C@H](c2ccccc2)[C@H](c2ccccc2)N2[C@H]1[C@@H](C(=O)Nc1nc3ccccc3s1)[C@]1(C(=O)Nc3ccc(C#CC4(O)CCCCCC4)cc31)[C@H]2c1ccc(O)cc1 ; z-score observed: -1.07

Sample CCCC=C(CCC)[C@@H](NC(=O)c1ccc(C(F)(F)F)cc1)c1ccccc1 ; z-score observed: -1.25

Sample CC(C)N1CC=CC23O[C@@H]4/C=C\CCCOC(=O)C4[C@H]2C(=O)N(CCCCCO)[C@@H]3C1=O (some centres undefined) ; z-score observed: 1.57

---

assay: small-molecule binders of probe aNOTCH3, primary screen, biochemical, small-molecule microarray, 635/667 nm fluorescence (AID 1120); settings: higher = more signal;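 note: probe is a biotin-tagged antibody raised against NOTCH3 rather than NOTCH3 protein; score merges spot fluorescence near 667 nm with spot signal to noise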
Property Label: composite z-score

Sample [N-]=[N+]=Nc1ccccc1C[C@@]1(C(=O)N2CCOCC2)N=C(c2ccc(OCCCO)cc2)O[C@@H]1c1ccccc1N=[N+]=[N-] ; composite z-score observed: 0.121

Sample CO[C@H]1COC(=O)[C@H](C)COC(=O)[C@H](Cc2ccccc2)NC(=O)CC=C[C@H]1C ; composite z-score observed: 0.62

Sample O=C1OCCC=C[C@H]2OC34C=CCN(Cc5ccccc5)C(=O)[C@H]3N(CCO)C(=O)[C@@H]4C12 (stereo partly drawn) ; composite z-score observed: -0.0967

Sample C=CCNC(=O)[C@H]1[C@@H]2C(=O)O[C@@H](c3ccccc3)[C@@H](c3ccccc3)N2[C@@H](c2ccccc2OCCO)[C@]12C(=O)N(C(=O)OCCOC)c1ccc(C#CCNC(N)=O)cc12 ; composite z-score observed: 0.0379

Sample Cc1ccc(S[C@]2(C(=O)O)CC(=O)N(Cc3cc(C(F)(F)F)cc(C(F)(F)F)c3)[C@@H]2c2ccc(CO)cc2I)cc1 ; composite z-score observed: -0.243

Sample C[C@]1(C(=O)NCc2ccccc2)c2ccccc2C(=O)N(Cc2cc(C(F)(F)F)cc(C(F)(F)F)c2)[C@H]1c1ccc(CO)cc1 ; composite z-score observed: 0.154

Sample O=C(NCC(O)CO)[C@]1(Cc2ccccc2)N=C(c2ccc(OCCCO)cc2)O[C@@H]1c1ccccc1 (stereo partly drawn) ; composite z-score observed: 0.101

Sample CCOC(=O)C1=CCC(c2cccc3ccccc23)N(S(=O)(=O)c2ccc(C)cc2)C1 (stereo not drawn) ; composite z-score observed: 0.056

Sample CO[C@H]1O[C@H](CO)[C@@H](OC(=O)CCc2ccccc2)[C@@H]2OC(=O)[C@H](Cc3cccc(Br)c3)C/C=C/C[C@@H](Cc3cccc(Br)c3)C(=O)O[C@@H]12 ; composite z-score observed: -0.15

Sample O=C(NCc1ccccc1)[C@@]1(Cc2ccccc2)COC(c2ccc(OCCCO)cc2)=N1 ; composite z-score observed: 0.0539

Sample NC(=O)[C@H]1[C@@H]2C(=O)O[C@@H](c3ccccc3)[C@@H](c3ccccc3)N2[C@@H](c2ccc(O)cc2)[C@]12C(=O)Nc1ccc(C#CCCO)cc12 ; composite z-score observed: -0.125

Sample CC(C)[C@H]1NC(=O)[C@@]23C(=O)N[C@@H](Cc4ccccc4)C2[C@H](C)[C@@]2(C)O[C@H]2C3/C=C/C/C=C\CNC(=O)[C@H](C)NC1=O (stereo partly drawn) ; composite z-score observed: -0.25

Sample C=C(COC)C(=O)CC[C@H](OC(=O)c1ccccc1-c1ccccc1C(=O)O)c1cccc(OCCO)c1 ; composite z-score observed: 0.123

Sample CC(=O)NCCCC[C@@H]1NC(=O)[C@H]2C[C@@H](C(=O)NCCCCCCN(C)C)[C@@H](c3ccc(O)cc3)N2C1=O ; composite z-score observed: 0.029

Sample C[C@H]1COC(=O)[C@@H]2CCCN2C(=O)[C@@H](C)COC(=O)[C@@H]2CCCN2C1=O ; composite z-score observed: -0.241

Sample COC(=O)[C@@]1(Cc2ccccc2N=[N+]=[N-])N=C(c2ccc(OCCCO)cc2)O[C@H]1c1ccccc1CN=[N+]=[N-] ; composite z-score observed: -0.0699

Sample Cc1ccc(S[C@]2(C(=O)O)CC(=O)N(Cc3ccccc3)[C@@H]2c2ccc(CO)cc2)cc1 ; composite z-score observed: -0.0328

Sample COc1ccc([Si](C)(C)[C@H]2[C@H](CCO)O[C@@]3(C(=O)N(Cc4ccc(N5CCCCC5=O)cc4)c4ccccc43)[C@@H]2C)cc1 ; composite z-score observed: 0.25

Sample O=C1O[C@H](c2ccccc2)[C@H](c2ccccc2)N2[C@H]1[C@@H](C(=O)Nc1nc3ccccc3s1)[C@]1(C(=O)Nc3ccc(C#CC4(O)CCCCCC4)cc31)[C@H]2c1ccc(O)cc1 ; composite z-score observed: 0.116

Sample C[N+](C)(C)CCCCNC(=O)[C@H]1C[C@H]2C(=O)NCC(=O)N2[C@H]1c1cccc(OCCO)c1 ; composite z-score observed: 0.147

Sample COCC(=C=CC[C@H](O)c1ccc(OCCO)cc1)C[C@H](O)c1ccccn1 ; composite z-score observed: -0.217

Sample CCC(=O)[C@]12O[C@@]3([C@@H]4C(=O)OCC[C@@H]41)N(Cc1ccccc1)C(C)=C(C(=O)OC)[C@@H](c1ccccc1)N3C2=O ; composite z-score observed: -0.207

Sample CO[C@H]1COC(=O)[C@H](C)NC(=O)CC=C[C@@H](C)[C@H](NS(=O)(=O)c2ccc(C)cc2)COC(=O)[C@@H](OCc2ccccc2)C=C[C@@H]1C ; composite z-score observed: -0.0932

Sample C=CCC(OC(C)=O)[C@@H]1[C@@H](N(Cc2ccc(-c3cccc(C(F)(F)F)c3)o2)C(=O)Cc2ccc(F)cc2)c2cc(OCCCO)ccc2N1C(=O)c1ccc(-c2ccccc2)cc1 (stereo partly drawn) ; composite z-score observed: -0.0996

Sample COC(=O)C[C@H]1O[C@]2(C(=O)N(Cc3ccccc3)c3ccc(I)cc32)[C@@H](C)[C@@H]1[Si](C)(C)c1ccc(OC)cc1 ; composite z-score observed: -0.185

Sample C=CC[C@]1(C(=O)O)N=C(c2ccc(OCCCO)cc2)O[C@H]1c1ccccc1N=[N+]=[N-] ; composite z-score observed: 0.0807

Sample COc1cc2c(cc1OC)CN(C(=O)[C@@H]1[C@H]3C(=O)O[C@H](c4ccccc4)[C@H](c4ccccc4)N3[C@H](c3ccccc3OCCO)[C@@]13C(=O)Nc1ccccc13)CC2 ; composite z-score observed: 0.746

Sample O=C1c2ccccc2[C@](Cc2ccccc2I)(C(=O)NCC(F)(F)F)[C@H](c2ccc(CO)cc2)N1Cc1ccccc1C(F)(F)F ; composite z-score observed: -0.099
